Experiment: reduction of polyQ htt aggregates in cells – imaging, exon1htt(103Q)mCFP cells, high-content imaging, primary screen (AID 483);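 note: compound exposure lasted 3 days before fixation; percent of the per-plate median nuclei count of sample wells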
Conditions: exon1htt(103Q)mCFP cell line, aggregate imaging, at 2 µM; measured here: cell count, toxicity
Test Readout: nuclei count (%)
Numeric answer only, unit % assumed.

As a guide, the following entries are already answered.
>  <Molecule>
O=C(O)COc1ccc2occ(C(=O)c3ccccc3)c2c1

>  <Test Readout>
nuclei count

>  <Result Unit>
%

>  <Readout Number>
94.5

$$$$
>  <Molecule>
O=C1CSC(c2cn(-c3ccccc3)nc2-c2cccs2)N1CC1CCCO1 (stereo unspecified)

>  <Test Readout>
nuclei count

>  <Result Unit>
%

>  <Readout Number>
101

$$$$
>  <Molecule>
O=C(Nc1ccc(CN2CCCCC2)cc1)c1ccc2c(c1)OCO2

>  <Test Readout>
nuclei count

>  <Result Unit>
%

>  <Readout Number>
102

$$$$
>  <Molecule>
CCOC(=O)N1CCN(C(=O)Nc2ccc3oc(C)nc3c2)CC1

>  <Test Readout>
nuclei count

>  <Result Unit>
%

>  <Readout Number>
84.8

$$$$
>  <Molecule>
CCN(CC)c1ccc2c(c1)CCCN2

>  <Test Readout>
nuclei count

>  <Result Unit>
%

>  <Readout Number>
91

$$$$

Request: Fill in: nuclei count of Cc1cc(Cl)c(S(=O)(=O)NC2CCCCC2)cc1OCC(=O)Nc1nncs1 is ___
Result: 107
